Assay system Acetylcholinesterase (Electrophorus electricus, UniProt O42275); read-out recorded as pIC50.
Just the number, please; pIC50 means minus log10 of the concentration in mol/L.

Look over these answered cases.
1. Cc1nc2nc3c(c(N)c2cc1C(=O)[O-])CCCC3.[Na+] = 5.28
2. CCOC(=O)c1cc2c(N)c3c(nc2nc1C)CCCC3 = 7.22

Attention now shifts to the item below.
Quick one: give measured pIC50 for Cc1nc2nc3c(c(N)c2cc1C(=O)O)CCCC3
4.82

* * *

Molecular target: Cholinesterase (Equus caballus, UniProt P81908)
Sequence (P81908 whole entry): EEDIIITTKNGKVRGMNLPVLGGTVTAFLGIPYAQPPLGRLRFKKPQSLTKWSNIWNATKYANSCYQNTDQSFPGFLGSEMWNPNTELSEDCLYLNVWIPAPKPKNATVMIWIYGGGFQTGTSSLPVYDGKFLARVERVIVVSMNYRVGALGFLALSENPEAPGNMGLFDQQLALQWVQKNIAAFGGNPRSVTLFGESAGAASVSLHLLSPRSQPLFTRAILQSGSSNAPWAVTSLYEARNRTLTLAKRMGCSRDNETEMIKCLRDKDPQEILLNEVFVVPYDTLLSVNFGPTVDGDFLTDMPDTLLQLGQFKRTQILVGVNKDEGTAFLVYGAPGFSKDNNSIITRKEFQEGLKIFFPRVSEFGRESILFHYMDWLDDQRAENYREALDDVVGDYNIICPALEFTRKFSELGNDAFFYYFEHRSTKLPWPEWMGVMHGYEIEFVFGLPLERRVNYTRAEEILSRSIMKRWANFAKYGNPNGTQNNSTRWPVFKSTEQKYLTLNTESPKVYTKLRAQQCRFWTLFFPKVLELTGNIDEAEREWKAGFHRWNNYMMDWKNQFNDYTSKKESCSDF
Assay: Inhibition of Equus caballus BuChE
Settings: read-out: IC50
property-name: IC50 (µM)
Write down the numeric answer in µM and omit the unit.

1. CCOC(=O)c1c(C)nc2nc3c(c(N)c2c1-c1ccccc1)CCCC3 = 5.03

Let's switch to this molecule now.
Consider the molecule CCOC(=O)c1cc2c(N)c3c(nc2nc1C)CCCC3 . State its measured IC50.
12

Origin of measurements: ChEMBL document CHEMBL1157899
